Data origin, for the record: ChEMBL document CHEMBL4627396

- Target Or Test System: Tyrosine-protein kinase SYK (Homo sapiens, UniProt P43405)
Measurement Name: IC50
Answer format reminder: number followed by unit.

Q: I have this compound here, NCCNc1ncc(C(N)=O)c(Nc2cccc(C(F)(F)F)c2)n1 , and I need its recorded IC50.
Result: 7 nM

###

- Test: Drug metabolism in mouse microsomes
- Assay type: ADME, Microsome
- Conditions: read-out: Drug metabolism
Measurement Name: microsomal CLint (µL/min/mg)
Supply the numeric figure in µL/min/mg, leaving out any unit text.

Q: I have this compound here, CC(C)c1cc(Nc2nc(N3CCC[C@H](N)C3)ncc2C(N)=O)cc(C(C)C)n1 , and I need its recorded microsomal CLint.
Result: 6
